Test system: NCI-H460 lung
protocol details: NCI-60 one-dose screen, 48 h
setup conditions: 10 µM unless noted
About 83,000 compounds went through this panel and 20% of them were active in at least one assay; those are over-represented in the sample as a whole. Activity calls are given as the source filed them. Rule for the calls: active = growth percent below 10; inactive = the rest.
Could you please pick one outcome from this set? TRUE = active, FALSE = inactive

input: Per the records of this test, what outcome belongs to CCCCN1C(=O)/C(=c2\sc3n(c2=O)C2C(NN=3)N(CC)C(=O)N2CC)c2cc(Cl)ccc21 (stereo not given) ?
output: FALSE

input: Per the records of this test, what outcome belongs to "Clc1ccc2oc3c(NCCCn4ccnc4)c4ccccc4nc3c2c1" ?
output: TRUE

input: Per the records of this test, what outcome belongs to OC1CCc2c(-c3ccc4ncnc(N5CCc6cc(F)c(Cl)cc65)c4c3)cncc21 (stereo not given) ?
output: FALSE

input: Per the records of this test, what outcome belongs to "COc1ccc(C(=O)/C=C/c2ccc(OCc3ccc(Cl)cc3)c(OC)c2)cc1OC" ?
output: FALSE

input: Per the records of this test, what outcome belongs to COc1cc2nc(-c3ccc(C(F)(F)F)cc3)cc(OCCCNCC3CCCO3)c2cc1OC (stereo not given) ?
output: FALSE

input: Per the records of this test, what outcome belongs to "Cc1ccc2ccc3ccc(C)nc3c2n1.Cc1ccc2ccc3ccc(C)nc3c2n1.Oc1c(Cl)cc(Cl)c2ccc(CN3CCCCC3)nc12.[Ru]" ?
output: TRUE

input: Per the records of this test, what outcome belongs to "C#Cc1nc(C2=C(C)C(=N\O)/C(=N/O)C2)cs1" ?
output: FALSE

input: Per the records of this test, what outcome belongs to "OC1CCN(CCCOc2c3ccccc3nc3c2oc2ccc(Cl)cc23)CC1" ?
output: TRUE

input: Per the records of this test, what outcome belongs to "O=C1c2c(c3c4cc(Br)ccc4[nH]c3c3ccc4ccccc4c23)C(=O)N1CCO" ?
output: FALSE

input: Per the records of this test, what outcome belongs to O=C(c1ccc(Cl)cc1)C1[C@H](c2ccc(Cl)cc2)[C@@H](c2ccccc2)NC12C(=O)Nc1ccc(Br)cc12 (stereo not given in full) ?
output: TRUE

input: Per the records of this test, what outcome belongs to "Cn1cc(-c2cc(N)n3nc(-c4cn(C)c5ccc(F)cc45)cc3n2)c2cc(F)ccc21" ?
output: TRUE

input: Per the records of this test, what outcome belongs to "O=c1/c(=C\c2ccc(-c3ccccc3)o2)sc2nc(-c3ccccc3)nn12" ?
output: FALSE

input: Per the records of this test, what outcome belongs to "CC(=O)Oc1ccccc1C(=O)Nc1ccc(C(=O)/C=C/c2cccs2)cc1" ?
output: FALSE

input: Per the records of this test, what outcome belongs to "COc1ccc(/C=C/C(=O)c2ccc(NC(=O)CSc3nnc(-c4ccc5nc(-c6ccc(Cl)cc6)[nH]c5c4)o3)cc2)cc1" ?
output: FALSE

input: Per the records of this test, what outcome belongs to "Cc1nc(-c2cc3ccccc3oc2=O)ccc1C(=O)/C=C/c1ccc(Cl)c(Cl)c1" ?
output: FALSE

input: Per the records of this test, what outcome belongs to "Cn1ccnc1C(=O)/C=C/c1ccc(NC(=O)Nc2ccc(Cl)cc2)cc1" ?
output: FALSE

input: Per the records of this test, what outcome belongs to "CCOC(=O)c1sc(N)c(C(=O)OCC)c1C" ?
output: FALSE

input: Per the records of this test, what outcome belongs to "COc1ccc(C(=O)c2cc(C(=O)/C=C/c3c(Cl)cccc3Cl)c3cc(C)ccn23)cc1" ?
output: FALSE

input: Per the records of this test, what outcome belongs to "Nc1c(C(=O)Nc2ccc(Cl)cc2)sc2nc(-c3cnccn3)cc(-c3cccs3)c12" ?
output: FALSE

input: Per the records of this test, what outcome belongs to "COc1ccc2[nH]cc(-c3cc(N)n4nc(-c5c[nH]c6ccc(OC)cc56)cc4n3)c2c1" ?
output: TRUE
